target: Serine/threonine-protein kinase N2 (Homo sapiens, UniProt Q16513); assay: Inhibition of PKN2 (unknown origin) by TR-FRET-based tracer displacement assay
Sequence (Q16513 whole entry): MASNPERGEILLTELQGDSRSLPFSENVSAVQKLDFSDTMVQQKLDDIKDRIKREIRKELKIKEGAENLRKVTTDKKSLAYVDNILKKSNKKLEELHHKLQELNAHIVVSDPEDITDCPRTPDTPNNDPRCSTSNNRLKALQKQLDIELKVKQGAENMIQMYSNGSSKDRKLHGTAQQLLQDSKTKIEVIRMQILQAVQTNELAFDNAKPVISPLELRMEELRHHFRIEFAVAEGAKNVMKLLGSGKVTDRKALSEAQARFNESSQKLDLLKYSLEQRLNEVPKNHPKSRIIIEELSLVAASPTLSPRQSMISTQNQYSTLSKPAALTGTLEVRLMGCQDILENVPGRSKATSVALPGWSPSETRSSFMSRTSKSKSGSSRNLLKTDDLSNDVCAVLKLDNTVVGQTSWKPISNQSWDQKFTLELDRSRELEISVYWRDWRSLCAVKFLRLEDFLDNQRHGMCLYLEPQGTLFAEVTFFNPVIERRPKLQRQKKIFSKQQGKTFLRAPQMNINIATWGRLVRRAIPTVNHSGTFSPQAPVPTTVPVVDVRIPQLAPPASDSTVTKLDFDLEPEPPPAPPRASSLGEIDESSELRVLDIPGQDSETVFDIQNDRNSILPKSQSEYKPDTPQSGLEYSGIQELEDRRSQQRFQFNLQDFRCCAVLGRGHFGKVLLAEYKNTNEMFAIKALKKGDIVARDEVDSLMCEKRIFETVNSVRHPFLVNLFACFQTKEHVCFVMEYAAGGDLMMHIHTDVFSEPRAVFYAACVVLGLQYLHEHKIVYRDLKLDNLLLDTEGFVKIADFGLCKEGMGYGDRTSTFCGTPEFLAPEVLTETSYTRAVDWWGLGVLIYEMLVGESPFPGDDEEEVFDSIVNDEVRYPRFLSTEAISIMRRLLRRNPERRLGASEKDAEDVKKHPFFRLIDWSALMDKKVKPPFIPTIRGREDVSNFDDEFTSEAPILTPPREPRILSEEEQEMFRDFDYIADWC
pIC50: −log10 of the molar value.
So basically: pIC50 at 6 or higher? That is true. Lower than 6? That is false.

// known answers, use as guide
1. CC(C)n1c(-c2ccncc2)cc2c1CCNC2=O    true
2. CCn1c(-c2ccncc2)cc2c1CCN(C)C2=O    true
3. CCCN1CCc2c(cc(-c3ccncc3)n2CC)C1=O    false
4. CCCn1c(-c2ccncc2)cc2c1CCNC2=O    true
5. O=C1NCCc2c1cc(-c1ccncc1)n2CCO    true
6. O=C1NCCc2[nH]c(-c3cccnc3)cc21    false

Moving on to the next compound.
Ask: Answer whether pIC50 of O=C1CCCc2[nH]c(-c3ccncc3)cc21 is greater than or equal to 6.
Result: true

###

molecular target: Serine/threonine-protein kinase N2 (Homo sapiens); test: Inhibition of PKN2 (unknown origin) by TR-FRET-based tracer displacement assay
parameter measured: pIC50
Keep in mind that pIC50 stands for -log10 of concentration in molar terms.

1. CCn1c(-c2ccncc2)cc2c1CCNC2=O    7.80

// next entry
In plain terms, Cn1c(-c2ccncc2)cc2c1CCNC2=O has a documented pIC50 of 6.59

###

IC50 for assorted molecules
target: Serine/threonine-protein kinase N2 (Homo sapiens, UniProt Q16513); test: Inhibition of PKN2 (unknown origin) by TR-FRET-based tracer displacement assay
Enter your answer as a number in nM; do not include the unit.

Illustrative cases are given below, each with its answer.
1) O=C1NC(c2ccccc2)Cc2[nH]c(-c3ccncc3)cc21 (stereo not drawn)    50
2) O=C1NCCc2c1cc(-c1ccncc1)n2Cc1ccccc1    640

// next entry
In plain terms, c1cc(-c2cc3c([nH]2)CCNC3)ccn1 has a documented IC50 of 2200
